Consider the following pIC50 data for Protease (Human immunodeficiency virus 1, UniProt Q9YQ12), collected from several reports.
Hey, just a heads up that pIC50 is the negative log base 10 of the concentration in molar.

Report pIC50 under test system Protease (Human immunodeficiency virus 1, UniProt Q9YQ12) for CC(C)CN(C[C@@H](O)[C@H](Cc1ccccc1)NC(=O)[C@]12CC[C@@H](C)[C@H](C)[C@H]1C1=CC[C@@H]3[C@@]4(C)CCC(=O)C(C)(C)[C@@H]4CC[C@@]3(C)[C@]1(C)CC2)S(=O)(=O)c1ccc([N+](=O)[O-])cc1 .
6.66

Enter pIC50 (test system Protease (Human immunodeficiency virus 1, UniProt Q9YQ12)) for CC(C)CN(C[C@@H](O)[C@H](Cc1ccccc1)NC(=O)[C@]1(C)CC[C@H]2C3=CC(=O)[C@@H]4[C@@]5(C)CC[C@H](O)C(C)(C)[C@@H]5CC[C@@]4(C)[C@]3(C)CC[C@@]2(C)C1)S(=O)(=O)c1ccc([N+](=O)[O-])cc1
6.30

GET pIC50 where system = Protease (Human immunodeficiency virus 1, UniProt Q9YQ12) and item = COc1ccc(S(=O)(=O)N(CC(C)C)C[C@@H](O)[C@H](Cc2ccccc2)NC(=O)[C@]23CC[C@@H](C)[C@H](C)[C@H]2C2=CC[C@@H]4[C@@]5(C)C[C@@H](O)[C@H](O)[C@@](C)(CO)[C@@H]5CC[C@@]4(C)[C@]2(C)CC3)cc1
6.82

Output reported pIC50 of the molecule CCCCCC(=O)N[C@@H](CSCCOCCOCCSC[C@H](NC(=O)CCCCC)C(=O)N[C@@H](CC(C)C)C(=O)N[C@@H](Cc1ccccc1)C(N)=O)C(=O)N[C@@H](Cc1ccccc1)C(=O)O on Protease (Human immunodeficiency virus 1, UniProt Q9YQ12).
4.83

Report pIC50 from Protease (Human immunodeficiency virus 1, UniProt Q9YQ12) testing of CC1(C)CC[C@]2(C(=O)O)CC[C@]3(C)C(=CC[C@@H]4[C@@]5(C)CC[C@H](O)C(C)(C)[C@@H]5CC[C@]43C)[C@@H]2C1
4.66

Give pIC50 for Cc1ccccc1SC1=C(O)CC(COc2ccc3ccccc3c2)(c2ccccc2)OC1=O (racemic) tested on Protease (Human immunodeficiency virus 1, UniProt Q9YQ12).
7.21

Report pIC50 under test system Protease (Human immunodeficiency virus 1, UniProt Q9YQ12) for CC(C)C[C@H](NC(=O)[C@H](CSCCOCCOCCSC[C@H](NC(=O)CCc1ccccc1)C(=O)N[C@@H](Cc1ccccc1)C(=O)O)NC(=O)CCc1ccccc1)C(=O)N[C@@H](Cc1ccccc1)C(N)=O .
5.19

Specify the recorded pIC50 for Cc1c(O)cccc1N(CC(=O)N[C@@H](Cc1ccccc1)[C@@H](O)CN(CC(C)C)S(=O)(=O)c1ccc(CO)cc1)CC(=O)N1CCOCC1 , system: Protease (Human immunodeficiency virus 1, UniProt Q9YQ12).
5.21
